The measurements presented in this section are drawn from PubChem BioAssay (NCI).

tested on: M14 melanoma; assay: NCI tumour cell line growth inhibition, 48 h
measuredProperty: TGI (µM)

• CCOC(=O)c1csc(NC(=O)CCN(CC)CC)n1 = 64.1
• Cc1ccc(CS/C(=C\c2ccc([N+](=O)[O-])cc2)C(=O)c2ccc(F)cc2)cc1 = 15.6
• Cc1ccc2c(c1)C(=O)/C(=C/c1ncc([N+](=O)[O-])n1C)O2 = 4.9
• CC(=O)OCC(C)C1=C(O)C(=O)C2(C)C/C=C(/C)CC/C=C(\C)CCC(O)C(C)CCC12 (configuration not stated) = 33.8

====

system: DLD-1 colon; experiment: NCI tumour cell line growth inhibition, 48 h
Recorded TGI for the following compounds
measuredProperty: TGI (µM)

• COc1ccc2cc1Oc1ccc(cc1)CC1c3cc(c(OC)cc3CCN1C)Oc1c3c(cc4c1C(C2)N(C)CC4)OCO3 (stereo not drawn) = 31.5
• CCOC(=O)C1Cc2[nH]c3ccccc3c2C(C)C1C (stereo not drawn) = 34.5
